- tested-on: [MCL-1]-[compound of formula (I)]—[CRBN/DDB1] (Homo sapiens, UniProt Q07820+Q96SW2)
- Sequence (Q07820 whole entry): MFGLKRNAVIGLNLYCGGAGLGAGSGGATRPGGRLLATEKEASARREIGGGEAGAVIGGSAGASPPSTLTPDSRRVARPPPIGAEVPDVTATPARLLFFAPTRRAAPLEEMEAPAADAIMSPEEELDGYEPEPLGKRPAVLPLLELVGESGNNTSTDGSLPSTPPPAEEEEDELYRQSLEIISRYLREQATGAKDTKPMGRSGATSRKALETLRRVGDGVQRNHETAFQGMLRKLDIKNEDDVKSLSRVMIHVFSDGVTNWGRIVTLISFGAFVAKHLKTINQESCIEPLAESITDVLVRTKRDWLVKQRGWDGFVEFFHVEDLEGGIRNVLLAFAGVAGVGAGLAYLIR
- Sequence (Q96SW2 whole entry): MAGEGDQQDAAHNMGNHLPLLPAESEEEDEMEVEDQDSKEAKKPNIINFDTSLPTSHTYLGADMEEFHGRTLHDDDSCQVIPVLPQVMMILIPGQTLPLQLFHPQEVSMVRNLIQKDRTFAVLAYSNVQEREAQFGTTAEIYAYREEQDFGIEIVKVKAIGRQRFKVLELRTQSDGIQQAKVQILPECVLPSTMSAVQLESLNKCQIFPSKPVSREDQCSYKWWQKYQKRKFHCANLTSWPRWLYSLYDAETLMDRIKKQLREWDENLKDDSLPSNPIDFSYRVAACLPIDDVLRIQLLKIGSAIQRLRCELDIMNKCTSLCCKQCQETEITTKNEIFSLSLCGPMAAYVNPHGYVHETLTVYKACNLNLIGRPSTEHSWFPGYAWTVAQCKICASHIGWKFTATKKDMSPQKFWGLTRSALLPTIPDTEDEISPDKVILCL
- Sequence (Q16531 whole entry partner): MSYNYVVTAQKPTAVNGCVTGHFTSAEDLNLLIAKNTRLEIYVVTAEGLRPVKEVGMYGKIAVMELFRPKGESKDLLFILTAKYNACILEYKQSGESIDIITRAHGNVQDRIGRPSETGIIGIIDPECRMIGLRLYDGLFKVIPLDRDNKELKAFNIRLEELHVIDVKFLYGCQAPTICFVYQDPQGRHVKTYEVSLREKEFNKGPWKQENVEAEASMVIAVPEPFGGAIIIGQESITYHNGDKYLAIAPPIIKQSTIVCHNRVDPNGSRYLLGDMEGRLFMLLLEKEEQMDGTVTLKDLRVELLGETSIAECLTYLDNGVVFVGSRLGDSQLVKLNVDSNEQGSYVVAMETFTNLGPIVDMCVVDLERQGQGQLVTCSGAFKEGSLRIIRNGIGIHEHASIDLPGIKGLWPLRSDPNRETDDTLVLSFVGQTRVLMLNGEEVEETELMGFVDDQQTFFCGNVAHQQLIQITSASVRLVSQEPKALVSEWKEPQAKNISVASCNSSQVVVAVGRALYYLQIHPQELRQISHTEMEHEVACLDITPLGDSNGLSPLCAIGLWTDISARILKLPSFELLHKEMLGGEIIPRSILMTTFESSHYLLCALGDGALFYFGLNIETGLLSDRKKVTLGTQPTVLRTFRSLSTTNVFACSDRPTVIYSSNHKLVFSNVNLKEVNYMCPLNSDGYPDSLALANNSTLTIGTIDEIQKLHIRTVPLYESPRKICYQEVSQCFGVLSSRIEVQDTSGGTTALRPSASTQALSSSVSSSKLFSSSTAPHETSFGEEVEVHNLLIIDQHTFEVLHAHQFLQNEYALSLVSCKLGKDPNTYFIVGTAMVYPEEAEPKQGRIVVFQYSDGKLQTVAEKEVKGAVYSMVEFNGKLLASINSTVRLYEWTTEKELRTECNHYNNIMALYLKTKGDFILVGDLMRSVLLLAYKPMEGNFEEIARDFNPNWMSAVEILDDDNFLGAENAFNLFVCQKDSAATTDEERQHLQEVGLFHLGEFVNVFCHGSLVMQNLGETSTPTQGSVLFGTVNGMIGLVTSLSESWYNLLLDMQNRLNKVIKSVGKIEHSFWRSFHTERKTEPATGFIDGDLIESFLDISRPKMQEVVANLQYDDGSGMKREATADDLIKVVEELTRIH
- test: HTRF ternary complex formation assay
- Assay type: binding
- measurement-parameters: hMcl-1 and CRBN, 180 min at 25° C.; read-out: HTRF ternary complex Average pEC50 by molecule (converted)
Where a name gives a salt, the structure may show the parent alone.
Form field: EC50 (one value per entry).
endpoint-label: EC50

>>> measured_result("Cc1nn(C)c(C)c1-c1c(Cl)ccc2c(CCCOc3cccc4cc(F)ccc34)c(C(=O)O)n(CCN3CCN(C(=O)COc4ccc5c6c(cccc46)C(=O)N5C4CCC(=O)NC4=O)CC3)c12 (centres unmarked)")
"< 0.0316 µM"
>>> measured_result("Cc1nn(C)c(C)c1-c1c(Cl)ccc2c(CCCOc3cccc4cc(F)ccc34)c(C(=O)O)n(CCN3CCN(CC(=O)NCc4ccc5c(c4)CN(C4CCC(=O)NC4=O)C5=O)CC3)c12 (centres unmarked)")
"< 0.1 µM"
>>> measured_result("Cc1nn(C)c(C)c1-c1c(Cl)ccc2c(CCCOc3cccc4cc(F)ccc34)c(C(=O)O)n(CCN3CCC(CN4CCN(c5ccc6c(c5)C(C)N(C5CCC(=O)NC5=O)C6=O)CC4)CC3)c12 (mixture of isomers)")
"< 0.0316 µM"
>>> measured_result("Cc1nn(C)c(C)c1-c1c(Cl)ccc2c(CCCOc3cccc4cc(F)ccc34)c(C(=O)O)n(CCN3CCC(CN4CCN(c5cc6c(cc5F)C(=O)N(C5CCC(=O)NC5=O)C6)CC4)CC3)c12 (centres unmarked)")
"< 0.0316 µM"
>>> measured_result("COCCOCCn1nc(C)c(-c2c(Cl)ccc3c(CCCOc4cccc5cc(F)ccc45)c(C(=O)O)n(CCN4CCN(C(=O)COc5cccc6c5CN(C5CCC(=O)NC5=O)C6=O)CC4)c23)c1C (centres unmarked) [Compound 147, trifluoroacetate]")
"< 0.1 µM"

----------
- tested-on: [MCL-1]-[compound of formula (I)]—[CRBN/DDB1] (Homo sapiens, UniProt Q07820+Q96SW2)
- test: HTRF ternary complex formation assay
- Format: binding
- measurement-parameters: hMcl-1 and CRBN, 180 min at 25° C.; read-out: HTRF ternary complex Average pEC50 by molecule (converted)
- Experimental: The effect of the bifunctional compounds of the invention on the formation of a ternary complex composed of [MCL-1]-[compound of formula (I)]—[CRBN/DDB1] was investigated with HTRF ternary complex assay. […] The read-out was performed with plate reader (Pherastar, BMG Labtech) in time resolved fluorescence mode. […]
endpoint-label: EC50

>>> measured_result("Cc1nc2c(C(=O)NC3CCC(=O)NC3=O)cc(OCC(=O)N3CCN(CCn4c(C(=O)O)c(CCCOc5cccc6cc(F)ccc56)c5ccc(Cl)c(-c6c(C)nn(C)c6C)c54)CC3)cc2[nH]1 (stereo not shown)")
"< 100 nM"
>>> measured_result("Cc1nn(C)c(C)c1-c1c(Cl)ccc2c(CCCOc3cccc4cc(F)ccc34)c(C(=O)O)n(CCN3CCN(C(=O)COc4cc(N5CCCCC5)cc5c4CN(C4CCC(=O)NC4=O)C5=O)CC3)c12 (stereo not shown)")
"< 31.6 nM"
>>> measured_result("Cc1nn(C)c(C)c1-c1c(Cl)ccc2c(CCCOc3cccc4cc(F)ccc34)c(C(=O)O)n(CCN3C(C)CN(C(=O)COc4cccc5c4CN(C4CCC(=O)NC4=O)C5=O)CC3C)c12 (stereo not shown)")
"< 100 nM"
>>> measured_result("Cc1nn(C)c(C)c1-c1c(Cl)ccc2c(CCCOc3cccc4cc(F)ccc34)c(C(=O)O)n(CCN3CCN(C(=O)COc4c(N(C)C)ccc5c4CN(C4CCC(=O)NC4=O)C5=O)CC3)c12 (stereo not shown)")
"< 316 nM"
>>> measured_result("Cc1nn(C)c(C)c1-c1c(Cl)ccc2c(CCCOc3cccc4cc(F)ccc34)c(C(=O)O)n(CCN3CCN(CC(=O)Nc4cccc5c4CN(C4CCC(=O)NC4=O)C5=O)CC3)c12 (stereo not shown)")
"< 100 nM"
>>> measured_result("CCc1nn2c(c1-c1c(Cl)ccc3c(CCCOc4cccc5cc(F)ccc45)c(C(=O)O)n(CCN4CCN(C(=O)COc5cccc6c5CN(C5CCC(=O)NC5=O)C6=O)CC4)c13)COCC2 (stereo not shown)")
"< 316 nM"
>>> measured_result("Cc1cc(OCCCc2c(C(=O)O)n(CCN3CCN(CC(=O)NCc4ccc5c(c4)CN(C4CCC(=O)NC4=O)C5=O)CC3)c3c(-c4c(C)nn(C)c4C)c(Cl)ccc23)cc(C)c1Cl (stereo not shown)")
"< 100 nM"
>>> measured_result("Cc1nc2ccc(C(=O)NCC(=O)N3CCN(CCn4c(C(=O)O)c(CCCOc5cccc6cc(F)ccc56)c5ccc(Cl)c(-c6c(C)nn(C)c6C)c54)CC3)cc2cc1C1CCC(=O)NC1=O (stereo not shown)")
"< 100 nM"
>>> measured_result("Cc1nc2c(OCC(=O)N3CCN(CCn4c(C(=O)O)c(CCCOc5cccc6cc(F)ccc56)c5ccc(Cl)c(-c6c(C)nn(C)c6C)c54)CC3)cccc2cc1C1CCC(=O)NC1=O (stereo not shown)")
"< 100 nM"
>>> measured_result("CNc1cc(OCC(=O)N2CCN(CCn3c(C(=O)O)c(CCCOc4cccc5cc(F)ccc45)c4ccc(Cl)c(-c5c(C)nn(C)c5C)c43)CC2)c2c(c1)C(=O)N(C1CCC(=O)NC1=O)C2 (stereo not shown)")
"< 316 nM"

----------
- test: Cell viability assay (CellTiter-Glo), ARH-77
- Format: cell-based
- measurement-parameters: human, ARH-77 cells (lymphoblast-like, MCL-1 independent), ARH-77, 24 hours, 1% FBS, read-out: Average pCC50 by molecule ARH-77 (converted)
Counter-ions that a name gives are not always drawn.
endpoint-label: CC50 at 24 h

>>> measured_result("COCCOCCn1nc(C)c(-c2c(Cl)ccc3c(CCCOc4cccc5cc(F)ccc45)c(C(=O)O)n(CCN4CCN(C(=O)COc5cccc6c5CN(C5CCC(=O)NC5=O)C6=O)CC4)c23)c1C (stereo not shown) [Compound 147, trifluoroacetate]")
"> 31.6 µM"
>>> measured_result("COc1ccc2c(c1OCC(=O)N1CCN(CCn3c(C(=O)O)c(CCCOc4cccc5cc(F)ccc45)c4ccc(Cl)c(-c5c(C)nn(C)c5C)c43)CC1)CN(C1CCC(=O)NC1=O)C2=O (stereo not shown) [Compound 7]")
"> 10 µM"
>>> measured_result("Cc1nc2c(C(=O)NC3CCC(=O)NC3=O)cc(OCCC(=O)N3CCN(CCn4c(C(=O)O)c(CCCOc5cccc6cc(F)ccc56)c5ccc(Cl)c(-c6c(C)nn(C)c6C)c54)CC3)cc2[nH]1 (stereo not shown) [Compound 3]")
"> 31.6 µM"
>>> measured_result("Cc1nc2c(OCC(=O)N3CCN(CCn4c(C(=O)O)c(CCCOc5cccc6cc(F)ccc56)c5ccc(Cl)c(-c6c(C)nn(C)c6C)c54)CC3)cccc2cc1C1CCC(=O)NC1=O (stereo not shown) [Compound 4]")
"> 10 µM"
>>> measured_result("Cc1nn(C)c(C)c1-c1c(Cl)ccc2c(CCCOc3cccc4cc(F)ccc34)c(C(=O)O)n(CCN3CCN(CC(=O)NCc4ccc5c(c4)CN(C4CCC(=O)NC4=O)C5=O)CC3)c12 (stereo not shown) [Compound 26]")
"> 31.6 µM"
>>> measured_result("CCc1nn2c(c1-c1c(Cl)ccc3c(CCCOc4cccc5cc(F)ccc45)c(C(=O)O)n(CCN4CCN(C(=O)COc5cccc6c5CN(C5CCC(=O)NC5=O)C6=O)CC4)c13)COCC2 (stereo not shown) [Compound 36]")
"> 10 µM"
>>> measured_result("CCc1c(OCC(=O)N2CCN(CCn3c(C(=O)O)c(CCCOc4cccc5cc(F)ccc45)c4ccc(Cl)c(-c5c(C)nn(C)c5C)c43)CC2)cccc1C(=O)NC1CCC(=O)NC1=O (stereo not shown) [Compound 24]")
"> 10 µM"

----------
- test: Cell viability assay (CellTiter-Glo), ARH-77
- Type: cell-based
- measurement-parameters: human, ARH-77 cells (lymphoblast-like, MCL-1 independent), ARH-77, 24 hours, 1% FBS, read-out: Average pCC50 by molecule ARH-77 (converted)
endpoint-label: CC50 at 24 h

>>> measured_result("Cc1nn(C)c(C)c1-c1c(Cl)ccc2c(CCCOc3cccc4cc(F)ccc34)c(C(=O)O)n(CCN3CCN(C(=O)COc4c(N(C)C)ccc5c4CN(C4CCC(=O)NC4=O)C5=O)CC3)c12 (stereo not drawn)")
"> 10 µM"
>>> measured_result("Cc1nn(C)c(C)c1-c1c(Cl)ccc2c(CCCOc3cccc4cc(F)ccc34)c(C(=O)O)n(CCN3CCN(C(=O)Cn4c(C)nc5c(C(=O)NC6CCC(=O)NC6=O)ccc(F)c54)CC3)c12 (stereo not drawn)")
"> 10 µM"
>>> measured_result("Cc1nn(C)c(C)c1-c1c(Cl)ccc2c(CCCOc3cccc4cc(F)ccc34)c(C(=O)O)n(CCN3CCN(C(=O)COc4ccc5c6c(cccc46)C(=O)N5C4CCC(=O)NC4=O)CC3)c12 (stereo not drawn)")
"> 10 µM"
>>> measured_result("Cc1nc2c(C(=O)NC3CCC(=O)NC3=O)cc(OCC(=O)N3CCN(CCn4c(C(=O)O)c(CCCOc5cccc6cc(F)ccc56)c5ccc(Cl)c(-c6c(C)nn(C)c6C)c54)CC3)cc2[nH]1 (stereo not drawn)")
"> 10 µM"
>>> measured_result("CCc1cc(OCC(=O)N2CCN(CCn3c(C(=O)O)c(CCCOc4cccc5cc(F)ccc45)c4ccc(Cl)c(-c5c(C)nn(C)c5C)c43)CC2)ccc1C(=O)NC1CCC(=O)NC1=O (stereo not drawn)")
"> 3.16 µM"
>>> measured_result("Cc1nn(C)c(C)c1-c1c(Cl)ccc2c(CCCOc3cccc4cc(F)ccc34)c(C(=O)O)n(CCN3CCN(C(=O)COc4cccc5c4n(C)c(=O)n5C4CCC(=O)NC4=O)CC3)c12 (stereo not drawn)")
"> 10 µM"
>>> measured_result("Cc1nn(C)c(C)c1-c1c(Cl)ccc2c(CCCOc3cccc4cc(F)ccc34)c(C(=O)O)n(CCN3CCN(C(=O)COc4cc(N5CCCCC5)cc5c4CN(C4CCC(=O)NC4=O)C5=O)CC3)c12 (stereo not drawn)")
"> 3.16 µM"
>>> measured_result("Cc1nn(C)c(C)c1-c1c(Cl)ccc2c(CCCOc3cccc4cc(F)ccc34)c(C(=O)O)n(CCN3CCN(C(=O)COc4cccc5c4C(C)N(C4CCC(=O)NC4=O)C5=O)CC3)c12 (stereo not drawn)")
"> 10 µM"
>>> measured_result("Cc1nn(C)c(C)c1-c1c(Cl)ccc2c(CCCOc3cccc4cc(F)ccc34)c(C(=O)O)n(CCN3CCC(CN4CCN(c5cc6c(cc5F)C(=O)N(C5CCC(=O)NC5=O)C6)CC4)CC3)c12 (stereo not drawn)")
"> 3.16 µM"
